The measured values listed here are drawn from the supplement of paper PMC12350171.

System: Haemophilus parainfluenzae
Protocol Summary: growth AUC normalised to DMSO control (fraction of control); higher = less growth inhibition, active = hit call of the paper
Cond: 20 µM
Counter-ions that a name gives are not always drawn.
Measured Attribute: growth AUC normalised to DMSO control
Please state the value as a number alone, without comment.

// known answers, use as guide
molecule="CC1(C)O[C@@H]2C[C@H]3[C@@H]4C[C@H](F)C5=CC(=O)C=C[C@]5(C)[C@H]4[C@@H](O)C[C@]3(C)[C@]2(C(=O)CO)O1 [Flunisolide]" measured_value=0.945
molecule="CCCN(CCC)CCc1cccc2c1CC(=O)N2 [Ropinirole hydrochloride]" measured_value=1
molecule="CCn1cc(C(=O)O)c(=O)c2ccc(C)nc21 [Nalidixic acid sodium salt]" measured_value=0.813
molecule="C[C@]12C[C@H](O)[C@H]3[C@@H](CCC4=CC(=O)CC[C@@]43C)[C@@H]1CC[C@@H]2C(=O)CO [Corticosterone]" measured_value=0.962

Task item: What value of growth AUC normalised to DMSO control has been recorded for this entry: CC1CCc2cc(F)cc3c(=O)c(C(=O)O)cn1c23 (configuration not stated) [Flumequine]
Reply: 0.066

Task item: What value of growth AUC normalised to DMSO control has been recorded for this entry: Clc1cc(Cl)c(OCC#CI)cc1Cl [Haloprogin]
Reply: 0.992

Task item: What value of growth AUC normalised to DMSO control has been recorded for this entry: NCCCCCC(=O)O [Aminocaproic acid]
Reply: 1.1

Task item: What value of growth AUC normalised to DMSO control has been recorded for this entry: CC(=O)OCC(=O)[C@@]1(O)[C@H](C)C[C@H]2[C@@H]3CCC4=CC(=O)C=C[C@]4(C)[C@@]3(F)[C@@H](O)C[C@@]21C [Dexamethasone acetate]
Reply: 1.03

Task item: What value of growth AUC normalised to DMSO control has been recorded for this entry: CC(Cc1cccc(C(F)(F)F)c1)NCCOC(=O)c1ccccc1 (configuration not stated) [Benfluorex]
Reply: 0.93

Task item: What value of growth AUC normalised to DMSO control has been recorded for this entry: CC[C@H](c1ccc(O)cc1)[C@@H](CC)c1ccc(O)cc1 [Hexestrol]
Reply: 0.984

Task item: What value of growth AUC normalised to DMSO control has been recorded for this entry: CC(CCc1ccccc1)NC(C)C(O)c1ccc(O)cc1 (configuration not stated) [Nylidrin]
Reply: 0.988

Task item: What value of growth AUC normalised to DMSO control has been recorded for this entry: O=C(O)c1cc(-c2ccc(F)cc2F)ccc1O [Diflunisal]
Reply: 0.916

Task item: What value of growth AUC normalised to DMSO control has been recorded for this entry: OCCOCCN1CCN(C2=Nc3ccccc3Sc3ccccc32)CC1 [Quetiapine hemifumarate]
Reply: 0.997

Task item: What value of growth AUC normalised to DMSO control has been recorded for this entry: O=C(CCCN1CCC(O)(c2ccc(Cl)cc2)CC1)c1ccc(F)cc1 [Haloperidol]
Reply: 0.951

Task item: What value of growth AUC normalised to DMSO control has been recorded for this entry: CCCCNC(=O)NS(=O)(=O)c1ccc(C)cc1 [Tolbutamide]
Reply: 0.99

Task item: What value of growth AUC normalised to DMSO control has been recorded for this entry: Nc1ncnc2c1ncn2C1OC(COP(=O)(O)O)C(O)C1O (configuration not stated) [Adenosine 5'-monophosphate monohydrate]
Reply: 0.982

Task item: What value of growth AUC normalised to DMSO control has been recorded for this entry: CC[C@H](C)C(=O)O[C@H]1C[C@H](O)C=C2C=C[C@H](C)[C@H](CC[C@@H](O)C[C@@H](O)CC(=O)O)[C@H]21 [Pravastatin]
Reply: 1.09
